Origin of the recorded values: PubChem BioAssay

Assay: reduced viability of SK-BR-3 breast cancer cells – cell-based, 24 h, human, pilot screen (AID 572);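 also: compound exposure lasted between 18 and 24 h rather than exactly 24 h; 100% = carrier-treated control wells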
Conditions: SK-BR-3 viability, CellTiter-Glo luminescence, at 10 µM, hits give low values
viability for assorted molecules
Respond with the bare value in %.

Previously resolved entries follow.
COC(=O)c1[nH]c2c(c1C)C(=O)CC(c1cc(OC)ccc1OC)C2 (stereo unspecified): 98.5
COC(=O)c1cn(NC(=O)C2CCCO2)c(=O)c2ccccc12 (stereo unspecified): 109
CC(c1ccccc1)n1cnc2ccccc21 (stereo unspecified): 82

Query string: Field request: viability | item: CCOc1ccc(S(=O)(=O)n2c(C)nc3ccccc32)cc1
Result string: 93

Query string: Field request: viability | item: CSc1nc2c(c(=O)n1C)SC(C)C2 (stereo unspecified)
Result string: 97
